Target: mouse melanocortin 3 receptor (mouse, UniProt P33033 1-323)
Sequence (P33033 whole entry): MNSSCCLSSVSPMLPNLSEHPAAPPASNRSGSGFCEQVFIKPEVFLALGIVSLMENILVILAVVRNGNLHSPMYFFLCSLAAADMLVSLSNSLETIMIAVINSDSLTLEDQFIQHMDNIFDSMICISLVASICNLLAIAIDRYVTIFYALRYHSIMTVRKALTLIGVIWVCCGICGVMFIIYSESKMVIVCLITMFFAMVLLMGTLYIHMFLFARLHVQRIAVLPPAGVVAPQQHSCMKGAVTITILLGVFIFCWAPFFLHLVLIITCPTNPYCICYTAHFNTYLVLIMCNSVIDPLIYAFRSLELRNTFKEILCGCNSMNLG
Assay: cell-based or functional assay
Square brackets hold non-standard residues; d marks the D form. Dap = NC[C@H](N)C(=O)O
EC50 (cAMP agonist) values for the binders below.

binder: cyclo(PHFFNAF[dP]) (Arg111His SNP in the Asn scaffold; also called c[Pro-His-Phe-Phe-Asn-Ala-Phe-DPro]) [ZMK 2-96]
EC50 (cAMP agonist): > 100 µM
--
binder: cyclo(PRYFNAF[dP]) (Phe112Tyr SNP in the Asn scaffold; also called c[Pro-Arg-Tyr-Phe-Asn-Ala-Phe-DPro]) [ZMK 2-110]
EC50 (cAMP agonist): > 100 µM
--
binder: cyclo(PRFFNVF[dP]) (Ala115Val SNP in the Asn scaffold; also called c[Pro-Arg-Phe-Phe-Asn-Val-Phe-DPro]) [ZMK 2-82]
EC50 (cAMP agonist): > 100 µM
--
binder: cyclo(PRYF[Dap]AF[dP]) (Phe112Tyr SNP in the Dap scaffold; also called c[Pro-Arg-Tyr-Phe-Dap-Ala-Phe-DPro]) [ZMK 2-112]
EC50 (cAMP agonist): > 100 µM
--
binder: cyclo(PHFF[Dap]AF[dP]) (Arg111His SNP in the Dap scaffold; also called c[Pro-His-Phe-Phe-Dap-Ala-Phe-DPro]) [ZMK 2-99]
EC50 (cAMP agonist): > 100 µM

The measured values listed here are drawn from patent US20210179666A1.
